System: OVCAR-5 ovarian
Test: NCI tumour cell line growth inhibition, 48 h
Quick rule: TGI of at least 10 µM means 1 (yes), below that means 0 (no).

INSERT INTO results (compound, subject_of_test, label_value) VALUES
  ('Cc1ccc(S(=O)(=O)NC(=O)OC23COCN2COC3)cc1', 'OVCAR-5 ovarian', '1 (yes)'),
  ('CC(=O)N(O)c1ccc(/C=C/c2ccccc2)cc1', 'OVCAR-5 ovarian', '0 (no)'),
  ('c1ccc2c(-c3csc(-c4c[nH]c5ccccc45)n3)c[nH]c2c1', 'OVCAR-5 ovarian', '1 (yes)'),
  ('O=C(NCCCCCCCN1CCCCCCC1)C(C1CCCCC1)C1CCCCC1', 'OVCAR-5 ovarian', '1 (yes)'),
  ('O=S(=O)(NCCCNc1nccc(-c2c(-c3ccc(F)cc3)nc3sccn23)n1)c1ccc(F)cc1', 'OVCAR-5 ovarian', '1 (yes)'),
  ('CC1CCC2(C)C(CC=C(C=O)C2(O)C=O)C12CO2 (stereo unspecified)', 'OVCAR-5 ovarian', '0 (no)'),
  ('O=[N+]([O-])C(=C/c1cccc2ccccc12)/C(=C\c1cccc2ccccc12)[N+](=O)[O-]', 'OVCAR-5 ovarian', '1 (yes)'),
  ('Clc1nc(Cl)c2ncn(CCOCCn3cnc4c(Cl)nc(Cl)nc43)c2n1', 'OVCAR-5 ovarian', '0 (no)'),
  ('OC1COC(OCc2ccccc2)C(O)C1O (stereo unspecified)', 'OVCAR-5 ovarian', '1 (yes)'),
  ('CCCCN(C)C(=O)C1=C(C)NC(C)=C(C(=O)N(C)CCCC)C1', 'OVCAR-5 ovarian', '1 (yes)'),
  ('CN1CCCC1c1cccnc1.O=C(O)c1ccccc1O.O=C([O-])c1ccccc1[OH2+].O=C([O-])c1ccccc1[OH2+].[Mn+2] (stereo unspecified)', 'OVCAR-5 ovarian', '1 (yes)'),
  ('CNC(=O)CCCNC(=O)CCCC(=O)OC', 'OVCAR-5 ovarian', '1 (yes)'),
  ('CC(C)N(C(=O)C12C3C4C1C1C2C3C41C(=O)N(C(C)C)C(C)C)C(C)C (stereo unspecified)', 'OVCAR-5 ovarian', '1 (yes)'),
  ('C[C@H]1CN(C2COC2)CCN1c1ccc(Nc2cc(-c3ccnc(N4CCn5c(cc6c5CC(C)(C)C6)C4=O)c3CO)cn(C)c2=O)nc1', 'OVCAR-5 ovarian', '1 (yes)'),
  ('CC1CCN(CCOc2ccc(CNc3ccc4nc(CCC5CCCCC5)[nH]c4c3)cc2)CC1', 'OVCAR-5 ovarian', '0 (no)'),
  ('CSC(=N)N1N=C2/C(=C/c3ccccc3)CCC[C@H]2[C@H]1c1ccccc1', 'OVCAR-5 ovarian', '1 (yes)'),
  ('COC(=O)CCC(NC(=S)N/N=C(\C)c1cnccn1)C(=O)OC (stereo unspecified)', 'OVCAR-5 ovarian', '1 (yes)'),
  ('Cc1ccc(C2=Nc3ccccc3SC(c3cccc4c3OCO4)C2)cc1 (stereo unspecified)', 'OVCAR-5 ovarian', '1 (yes)'),
  ('COCCOCCOCCOCCOC(=O)OC[n+]1ccc(NC(=NCCCCCCOc2ccc(Cl)cc2)NC#N)cc1', 'OVCAR-5 ovarian', '1 (yes)'),
  ('Cc1nc(N(C(C)C)C(C)C)c(C(C)C)o1', 'OVCAR-5 ovarian', '1 (yes)'),
  ('CSc1nc2c3ccccc3ccn2c1C(=O)N/N=C/c1ccccc1', 'OVCAR-5 ovarian', '1 (yes)');

---

TGI reference
System: ACHN renal
Assay: NCI tumour cell line growth inhibition, 48 h
measure.name: TGI

INSERT INTO measurements (molecule, subject_of_test, measure_name, recorded_value) VALUES
  ('COc1ccc2c(c1)C(=O)c1c-2c(=O)n(CCCN(C)C)c2cc(OC)c(OC)cc12', 'ACHN renal', 'TGI', '14.4 µM'),
  ('CCC(=O)C(CCN1CCC(N2C(=O)C(CCC#N)c3ccccc32)CC1)(c1ccccc1)c1ccccc1 (stereo not given)', 'ACHN renal', 'TGI', '43.8 µM'),
  ('COC(=O)c1cc([N+](=O)[O-])cc([N+](=O)[O-])c1Cl', 'ACHN renal', 'TGI', '3.21 µM'),
  ('O/N=C1/CCCc2nonc21', 'ACHN renal', 'TGI', '> 100 µM'),
  ('Cc1nc(N(C(C)C)C(C)C)c(C(C)C)o1', 'ACHN renal', 'TGI', '> 100 µM'),
  ('N#Cc1c(-c2ccccc2)cc(-c2ccccc2)n(C2OCC(O)C(O)C2O)c1=S (stereo not given)', 'ACHN renal', 'TGI', '38.1 µM'),
  ('CC(=O)NCCCCN(CCCNC(C)=O)C(=O)OCc1ccccc1', 'ACHN renal', 'TGI', '> 100 µM'),
  ('C=C1C=CC2(Br)OC3CC(C)(Cl)C(Br)CC13C2(C)C (stereo not given)', 'ACHN renal', 'TGI', '56.2 µM'),
  ('CN1CCCC1c1cccnc1.O=C(O)c1ccccc1O.O=C([O-])c1ccccc1[OH2+].O=C([O-])c1ccccc1[OH2+].[Mn+2] (stereo not given)', 'ACHN renal', 'TGI', '> 100 µM'),
  ('CC(=O)N(O)c1ccc(/C=C/c2ccccc2)cc1', 'ACHN renal', 'TGI', '2.08 µM'),
  ('Cc1ccc(S(=O)(=O)N2CC(CCN)c3ccccc32)cc1 (stereo not given)', 'ACHN renal', 'TGI', '> 53.2 µM'),
  ('N#C/C(=C1\OC(=N)C(c2ccc(Cl)cc2Cl)C1=O)c1ccc(Cl)cc1Cl (stereo not given)', 'ACHN renal', 'TGI', '> 100 µM'),
  ('C/C(N)=N/OCc1nc(C)no1', 'ACHN renal', 'TGI', '> 100 µM'),
  ('O=C(Cc1ccccc1)C(c1ccccc1)S(=O)(=O)c1ccccc1 (stereo not given)', 'ACHN renal', 'TGI', '> 100 µM'),
  ('COC(=O)CCC(NC(=S)N/N=C(\C)c1cnccn1)C(=O)OC (stereo not given)', 'ACHN renal', 'TGI', '> 100 µM'),
  ('C[C@H]1CN(C2COC2)CCN1c1ccc(Nc2cc(-c3ccnc(N4CCn5c(cc6c5CC(C)(C)C6)C4=O)c3CO)cn(C)c2=O)nc1', 'ACHN renal', 'TGI', '> 100 µM'),
  ('COC1=C2CC(C)CC(OC)C(OC(=O)CCCN)C(C)/C=C(\C)C(OC(N)=O)C(OC)/C=C\C=C(/C)C(=O)NC(=CC1=O)C2=O (stereo not given)', 'ACHN renal', 'TGI', '17.8 µM'),
  ('O=c1n(-c2ccccc2)c(=O)n2c(-c3ccccc3)c(-c3ccccc3)n12', 'ACHN renal', 'TGI', '> 100 µM'),
  ('COc1ccc(/C=N\Nc2nc(SCC(C)C)nc(-c3ccc(OC)cc3)c2C#N)cc1', 'ACHN renal', 'TGI', '2.37 µM'),
  ('COCCOCCOCCOCCOC(=O)OC[n+]1ccc(NC(=NCCCCCCOc2ccc(Cl)cc2)NC#N)cc1', 'ACHN renal', 'TGI', '23.4 µM'),
  ('O=C1/C(=C/c2ccccc2O)N=C(c2ccccc2)N1c1cc(C(F)(F)F)ccc1Cl', 'ACHN renal', 'TGI', '51.4 µM'),
  ('c1cc(CN2CCNCCNCCNCC2)cc(CN2CCNCCNCCNCC2)c1', 'ACHN renal', 'TGI', '> 100 µM'),
  ('COc1cc(C(=O)O)c(-c2cc3c(cc2C=O)OCO3)c(OC)c1OC', 'ACHN renal', 'TGI', '> 10 µM'),
  ('Clc1nc(Cl)c2ncn(CCOCCn3cnc4c(Cl)nc(Cl)nc43)c2n1', 'ACHN renal', 'TGI', '0.811 µM'),
  ('CCOC(=O)C(Cc1ccc(N(CCCl)CCCl)cc1)NC(=O)C(Cc1ccccc1)NC(C)=O (stereo not given)', 'ACHN renal', 'TGI', '0.309 µM'),
  ('c1ccc(C2=C(c3ccccc3)Sc3nnc(CCCCCCCCc4nnc5n4NC(c4ccccc4)=C(c4ccccc4)S5)n3N2)cc1', 'ACHN renal', 'TGI', '> 100 µM'),
  ('CNC(=O)CCCNC(=O)CCCC(=O)OC', 'ACHN renal', 'TGI', '> 100 µM'),
  ('C=CCNC(=O)CN(CC(=O)OC)C1CCCCC1N(CC(=O)OC)CC(=O)OC (stereo not given)', 'ACHN renal', 'TGI', '> 100 µM'),
  ('C[C@@H](NC(=O)c1ccc(F)cc1)c1ccc2c(c1)CCN2C(=O)C1CCOCC1', 'ACHN renal', 'TGI', '> 100 µM'),
  ('O=C(c1cc(Cc2n[nH]c(=O)c3ccccc23)ccc1F)N1CCN(C(=O)C2CC2)CC1', 'ACHN renal', 'TGI', '> 100 µM'),
  ('COc1ccc(-n2c(C)nc3ccc(NC4OC(CO)C(O)C(O)C4O)cc3c2=O)cc1 (stereo not given)', 'ACHN renal', 'TGI', '> 100 µM'),
  ('Nc1nc2ccccc2c2c1S(=O)(=O)c1ccc(Cl)cc1C2=O', 'ACHN renal', 'TGI', '> 50 µM'),
  ('Nc1[nH]c(=O)[nH]c(=O)c1Cc1cccc(Cl)c1', 'ACHN renal', 'TGI', '> 100 µM'),
  ('N#CC1C(N)=NNC12Nc1ccccc1S2 (stereo not given)', 'ACHN renal', 'TGI', '53.3 µM'),
  ('COc1ccc(NC(=O)C(=O)Cc2nc3ccc(C(=O)c4ccccc4)cc3[nH]c2=O)c([N+](=O)[O-])c1', 'ACHN renal', 'TGI', '> 100 µM'),
  ('COCCOCOC(C)(C)[C@H](CCO)O[Si](c1ccccc1)(c1ccccc1)C(C)(C)C', 'ACHN renal', 'TGI', '18.9 µM'),
  ('CC(C)(C)c1cc(C(=O)O)c2c(c1)C(=O)OC2(c1ccccc1)c1ccccc1C(=O)O (stereo not given)', 'ACHN renal', 'TGI', '> 100 µM'),
  ('O=C(CC(=O)c1ccccc1)C(=O)Nc1ccc(Cl)cc1', 'ACHN renal', 'TGI', '> 100 µM'),
  ('Cc1ccc(/C=C2\Cc3cc(C)c(C)cc3C2=O)c(C(=O)O)c1', 'ACHN renal', 'TGI', '> 100 µM'),
  ('COc1ccc(C2CC(c3ccc(N(C)C)cc3)=NN2c2ccc(S(N)(=O)=O)cc2)cc1 (stereo not given)', 'ACHN renal', 'TGI', '> 100 µM');
